System: CGTH-W-1 (Thyroid Gland Carcinoma)
Assay: combination Emax (second highest fraction inhibited in the dose matrix, 72 h); higher = more inhibition; extreme values may be limits of the assay

# molecule, subject of test, combination Emax
records = [
    ("C=CCn1c(=O)c2cnc(Nc3ccc(N4CCN(C)CC4)cc3)nc2n1-c1cccc(C(C)(C)O)n1 [AZD1775] + CCc1c2c(nc3ccc(O)cc13)-c1cc3c(c(=O)n1C2)COC(=O)[C@]3(O)CC [SN-38] (first compound max 1 µM, partner max 0.3 µM)", "CGTH-W-1 (Thyroid Gland Carcinoma)", 0.703),
    ("CN(CCO)CC[C@H](CSc1ccccc1)Nc1ccc(S(=O)(=O)NC(=O)c2ccc(N3CCC([C@@H](O)c4ccccc4-c4ccc(Cl)cc4)CC3)cc2)cc1S(=O)(=O)C(F)(F)F [AZD4320] + C[C@@H](Nc1cc(F)cc(F)c1)c1cc(C(=O)N(C)C)cc2c(=O)cc(N3CCOCC3)oc12 [AZD8186] (first compound max 1 µM, 7x7, partner max 3 µM)", "CGTH-W-1 (Thyroid Gland Carcinoma)", 0.476),
    ("COc1nnc2ccc(N3CCC(c4ccc(OCCN5CCN(C)C(=O)[C@H]5C)cc4)CC3)nn12 [AZD5153] + Cn1cnc2c(F)c(Nc3ccc(Br)cc3Cl)c(C(=O)NOCCO)cc21 [Selumetinib] (first compound max 1 µM, 7x7, partner max 10 µM)", "CGTH-W-1 (Thyroid Gland Carcinoma)", 0.356),
    ("C[C@@H]1COCCN1c1cc(C2([S@](C)(=N)=O)CC2)nc(-c2ccnc3[nH]ccc23)n1 [AZD6738] + Nc1ccn([C@@H]2O[C@H](CO)[C@@H](O)C2(F)F)c(=O)n1 [Gemcitabine] (first compound max 10 µM, 7x7, partner max 0.3 µM)", "CGTH-W-1 (Thyroid Gland Carcinoma)", 0.947),
    ("Cc1cc2ncnn2cc1Nc1ncc2c(n1)n(C1CCOCC1)c(=O)n2C [AZD7648] + COc1cc([C@@H]2c3cc4c(cc3[C@@H](O[C@@H]3O[C@@H]5CO[C@@H](C)O[C@H]5[C@H](O)[C@H]3O)[C@H]3COC(=O)[C@H]23)OCO4)cc(OC)c1O [Etoposide] (first compound max 10 µM, 7x7, partner max 10 µM)", "CGTH-W-1 (Thyroid Gland Carcinoma)", 0.603),
    ("Cc1c2c(nn1C)CSCc1cc(n(C)n1)CSc1cc(c3ccccc3c1)OCCCc1c(C(=O)O)n(C)c3c-2c(Cl)ccc13 [AZD5991] + CN(C)CCCOc1ccc(-c2ccc3ncc4c(c3c2)n(C2CCOCC2)c(=O)n4C)cn1 [AZD0156] (first compound max 1 µM, 7x7, partner max 1 µM)", "CGTH-W-1 (Thyroid Gland Carcinoma)", 0.19),
    ("COc1cccc(OCCCN)c1-c1cc(Nc2cnc(C#N)cn2)n[nH]1 [Prexasertib] + CN(C)CCCOc1ccc(-c2ccc3ncc4c(c3c2)n(C2CCOCC2)c(=O)n4C)cn1 [AZD0156] (first compound max 1 µM, 7x7, partner max 1 µM)", "CGTH-W-1 (Thyroid Gland Carcinoma)", 0.777),
]

* * *

System: DU-4475 (Breast Carcinoma)
Test: Bliss excess, mean over the matrix (fraction); higher = more synergy

# molecule, subject of test, Bliss excess
records = [
    ("CC(=O)c1c(C)c2cnc(Nc3ccc(N4CCNCC4)cn3)nc2n(C2CCCC2)c1=O [Palbociclib] + Cc1c2c(nn1C)CSCc1cc(n(C)n1)CSc1cc(c3ccccc3c1)OCCCc1c(C(=O)O)n(C)c3c-2c(Cl)ccc13 [AZD5991] (first compound max 10 µM, 7x7, partner max 1 µM)", "DU-4475 (Breast Carcinoma)", 0.0238),
    ("C[C@@H]1COCCN1c1cc(C2([S@](C)(=N)=O)CC2)nc(-c2ccnc3[nH]ccc23)n1 [AZD6738] + O=C(c1cc(Cc2n[nH]c(=O)c3ccccc23)ccc1F)N1CCN(C(=O)C2CC2)CC1 [Olaparib] (first compound max 10 µM, 7x7, partner max 10 µM)", "DU-4475 (Breast Carcinoma)", 0.0762),
]

* * *

Test system: NCI-H1651 (Lung Adenocarcinoma)
Assay: Bliss excess, mean over the matrix (fraction); higher = more synergy

# molecule, Bliss excess
rows = [
    ("Cc1c2c(nn1C)CSCc1cc(n(C)n1)CSc1cc(c3ccccc3c1)OCCCc1c(C(=O)O)n(C)c3c-2c(Cl)ccc13 [AZD5991] + CC1(C)CCC(CN2CCN(c3ccc(C(=O)NS(=O)(=O)c4ccc(NCC5CCOCC5)c([N+](=O)[O-])c4)c(Oc4cnc5[nH]ccc5c4)c3)CC2)=C(c2ccc(Cl)cc2)C1 [Venetoclax] (first compound max 1 µM, 7x7, partner max 1 µM)", -0.0327),
    ("NC1(C(=O)N[C@@H](CCO)c2ccc(Cl)cc2)CCN(c2ncnc3[nH]ccc23)CC1 [Capivasertib] + CCN(CCO)CCCOc1ccc2c(Nc3cc(CC(=O)Nc4cccc(F)c4)[nH]n3)ncnc2c1 [AZD2811] (first compound max 10 µM, 7x7, partner max 1 µM)", -0.0381),
    ("COc1cccc(OCCCN)c1-c1cc(Nc2cnc(C#N)cn2)n[nH]1 [Prexasertib] + CCc1c2c(nc3ccc(O)cc13)-c1cc3c(c(=O)n1C2)COC(=O)[C@]3(O)CC [SN-38] (first compound max 1 µM, 7x7, partner max 0.3 µM)", -0.0551),
]

* * *

System: CESS (Acute Myeloid Leukemia)
Assay: Bliss excess, mean over the matrix (fraction); higher = more synergy
Listed next: entries and their corresponding Bliss excess.

# compound, Bliss excess
data = [
    ("NC1(C(=O)N[C@@H](CCO)c2ccc(Cl)cc2)CCN(c2ncnc3[nH]ccc23)CC1 [Capivasertib] + COc1nnc2ccc(N3CCC(c4ccc(OCCN5CCN(C)C(=O)[C@H]5C)cc4)CC3)nn12 [AZD5153] (first compound max 10 µM, 7x7, partner max 1 µM)", 0.0506),
    ("Cn1cnc2c(F)c(Nc3ccc(Br)cc3Cl)c(C(=O)NOCCO)cc21 [Selumetinib] + CCN(CCO)CCCOc1ccc2c(Nc3cc(CC(=O)Nc4cccc(F)c4)[nH]n3)ncnc2c1 [AZD2811] (first compound max 10 µM, 7x7, partner max 1 µM)", 0.0943),
    ("CCN(CCO)CCCOc1ccc2c(Nc3cc(CC(=O)Nc4cccc(F)c4)[nH]n3)ncnc2c1 [AZD2811] + C=CCn1c(=O)c2cnc(Nc3ccc(N4CCN(C)CC4)cc3)nc2n1-c1cccc(C(C)(C)O)n1 [AZD1775] (first compound max 1 µM, partner max 1 µM)", 0.0173),
]

* * *

Test system: WM1552C (Melanoma)
Experiment: Bliss excess, mean over the matrix (fraction); higher = more synergy
reported property: Bliss excess

# compound, subject of test, reported property, readout number
data = [
    ("CCc1c2c(nc3ccc(O)cc13)-c1cc3c(c(=O)n1C2)COC(=O)[C@]3(O)CC [SN-38] + CN(C)CCCOc1ccc(-c2ccc3ncc4c(c3c2)n(C2CCOCC2)c(=O)n4C)cn1 [AZD0156] (first compound max 0.3 µM, 7x7, partner max 1 µM)", "WM1552C (Melanoma)", "Bliss excess", 0.0013),
    ("CCc1c2c(nc3ccc(O)cc13)-c1cc3c(c(=O)n1C2)COC(=O)[C@]3(O)CC [SN-38] + O=C(c1cc(Cc2n[nH]c(=O)c3ccccc23)ccc1F)N1CCN(C(=O)C2CC2)CC1 [Olaparib] (first compound max 0.3 µM, 7x7, partner max 10 µM)", "WM1552C (Melanoma)", "Bliss excess", 0.0586),
    ("CCN(CCO)CCCOc1ccc2c(Nc3cc(CC(=O)Nc4cccc(F)c4)[nH]n3)ncnc2c1 [AZD2811] + C=CCn1c(=O)c2cnc(Nc3ccc(N4CCN(C)CC4)cc3)nc2n1-c1cccc(C(C)(C)O)n1 [AZD1775] (first compound max 1 µM, partner max 1 µM)", "WM1552C (Melanoma)", "Bliss excess", 0.0035),
    ("C=CCn1c(=O)c2cnc(Nc3ccc(N4CCN(C)CC4)cc3)nc2n1-c1cccc(C(C)(C)O)n1 [AZD1775] + O=C(c1cc(Cc2n[nH]c(=O)c3ccccc23)ccc1F)N1CCN(C(=O)C2CC2)CC1 [Olaparib] (first compound max 1 µM, partner max 10 µM)", "WM1552C (Melanoma)", "Bliss excess", -0.0941),
    ("O=C(c1cc(Cc2n[nH]c(=O)c3ccccc23)ccc1F)N1CCN(C(=O)C2CC2)CC1 [Olaparib] + CC1(C)CCC(CN2CCN(c3ccc(C(=O)NS(=O)(=O)c4ccc(NCC5CCOCC5)c([N+](=O)[O-])c4)c(Oc4cnc5[nH]ccc5c4)c3)CC2)=C(c2ccc(Cl)cc2)C1 [Venetoclax] (first compound max 10 µM, 7x7, partner max 1 µM)", "WM1552C (Melanoma)", "Bliss excess", -0.0325),
    ("C=CCn1c(=O)c2cnc(Nc3ccc(N4CCN(C)CC4)cc3)nc2n1-c1cccc(C(C)(C)O)n1 [AZD1775] + CCc1c2c(nc3ccc(O)cc13)-c1cc3c(c(=O)n1C2)COC(=O)[C@]3(O)CC [SN-38] (first compound max 1 µM, partner max 0.3 µM)", "WM1552C (Melanoma)", "Bliss excess", -0.0628),
    ("CC1(C)CCC(CN2CCN(c3ccc(C(=O)NS(=O)(=O)c4ccc(NCC5CCOCC5)c([N+](=O)[O-])c4)c(Oc4cnc5[nH]ccc5c4)c3)CC2)=C(c2ccc(Cl)cc2)C1 [Venetoclax] + C=CCn1c(=O)c2cnc(Nc3ccc(N4CCN(C)CC4)cc3)nc2n1-c1cccc(C(C)(C)O)n1 [AZD1775] (first compound max 1 µM, partner max 1 µM)", "WM1552C (Melanoma)", "Bliss excess", 0.0354),
]
